assay: Pharmacokinetics after single oral dose in rats; format: in vivo, Wistar rat; details: male, Wistar, rat, plasma, po, 30 mg/kg, rat No. 1-6, oral 30 mg/kg, time 2.5 h; read-out: Plasma concentration, individual rats

| COMPOUND | UNIT_TEXT | concentration at 2.5 h |
| --- | --- | --- |
| CN1CCN(Cc2ccc(NC(=O)c3n[nH]cc3Nc3ncnc4sccc34)cc2)CC1 [Compound I-1] | ng/mL | 100 |
| O=C(Nc1ccc(CN2CCOCC2)cc1)c1n[nH]cc1Nc1ncnc2sccc12 [Compound I-2] | ng/mL | 72.9 |

----------
target: FGFR1 (Homo sapiens); assay: Kinase IC50, 33P labeled isotope method; assay type: biochemical
Sequence (P11362 478-767 limits assumed): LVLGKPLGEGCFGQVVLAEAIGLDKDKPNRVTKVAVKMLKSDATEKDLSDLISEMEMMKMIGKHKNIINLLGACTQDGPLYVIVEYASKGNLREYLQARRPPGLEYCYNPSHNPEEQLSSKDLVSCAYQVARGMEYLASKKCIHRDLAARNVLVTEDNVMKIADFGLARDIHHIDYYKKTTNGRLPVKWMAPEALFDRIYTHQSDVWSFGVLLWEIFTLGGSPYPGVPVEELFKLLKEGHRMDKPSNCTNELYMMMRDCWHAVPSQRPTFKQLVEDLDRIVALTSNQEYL

| MOLECULE | UNIT_TEXT | IC50 |
| --- | --- | --- |
| CN1CCN(Cc2ccc(NC(=O)c3n[nH]cc3Nc3ncnc4[nH]ccc34)cc2)CC1 [Compound I-11] | nM | 247 |

----------
tested on: resistant breast cancer cell line MCF-7; test: Anti-tumor activity in vitro, MTT method; conditions: Homo sapiens, MCF7, 48 h, read-out: Resistant MCF7 (IC50/μM)

| COMPOUND | IC50 / µM |
| --- | --- |
| O=C(NC1CCNCC1)c1n[nH]cc1NC(=O)c1c(Cl)cccc1Cl [AT-7519, reference compound] | 22.1 |
| CN1CCN(Cc2ccc(NC(=O)c3n[nH]cc3Nc3ncnc4sccc34)cc2)CC1 | 3.73 |

----------
Parameter IC50: see the listing below.
target: CDK4/cyclin D1 (Homo sapiens); experiment: Kinase IC50, 33P labeled isotope method; format: biochemical
Sequence (P11802 6-295 limits assumed): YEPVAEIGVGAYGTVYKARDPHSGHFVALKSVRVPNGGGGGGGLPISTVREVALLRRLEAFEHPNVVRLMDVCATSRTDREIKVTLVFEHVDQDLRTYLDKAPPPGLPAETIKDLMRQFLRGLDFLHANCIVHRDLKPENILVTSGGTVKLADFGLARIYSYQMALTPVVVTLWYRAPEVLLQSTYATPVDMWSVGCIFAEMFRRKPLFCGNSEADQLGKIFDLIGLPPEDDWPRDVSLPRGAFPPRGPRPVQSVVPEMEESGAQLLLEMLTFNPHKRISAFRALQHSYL
Sequence (P24385 whole entry partner): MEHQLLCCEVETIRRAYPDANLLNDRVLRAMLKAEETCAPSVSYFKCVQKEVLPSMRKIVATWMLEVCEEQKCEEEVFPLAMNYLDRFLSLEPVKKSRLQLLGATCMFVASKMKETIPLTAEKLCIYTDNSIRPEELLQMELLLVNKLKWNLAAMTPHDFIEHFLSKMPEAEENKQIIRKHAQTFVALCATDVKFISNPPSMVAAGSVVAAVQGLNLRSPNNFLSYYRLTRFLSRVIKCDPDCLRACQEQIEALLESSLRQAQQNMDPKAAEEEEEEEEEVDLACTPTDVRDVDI
ENDPOINT_NAME: IC50

| COMPOUND | VALUE_MEASURED |
| --- | --- |
| CN1CCN(Cc2ccc(NC(=O)c3n[nH]cc3Nc3ncnc4sccc34)cc2)CC1 [Compound I-1] | 6 nM |
| CN1CCN(Cc2ccc(NC(=O)c3n[nH]cc3Nc3ncnc4[nH]ccc34)cc2)CC1 [Compound I-11] | 6 nM |

----------
target: FGFR2 (Homo sapiens); assay: Kinase IC50, 33P labeled isotope method; type: biochemical; conditions: 20 μM ATP; read-out: IC50* FGFR2
Sequence (P21802 481-770 limits assumed): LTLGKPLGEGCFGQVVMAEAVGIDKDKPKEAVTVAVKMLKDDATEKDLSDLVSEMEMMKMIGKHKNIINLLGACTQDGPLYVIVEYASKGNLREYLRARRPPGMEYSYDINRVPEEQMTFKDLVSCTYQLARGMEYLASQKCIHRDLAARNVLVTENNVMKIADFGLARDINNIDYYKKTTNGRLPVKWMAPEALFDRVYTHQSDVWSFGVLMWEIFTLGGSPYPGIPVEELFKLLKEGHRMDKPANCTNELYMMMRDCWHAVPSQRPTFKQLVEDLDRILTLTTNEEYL
pIC50: −log10 of the molar value.
ENDPOINT_NAME: pIC50

| ITEM_SMILES | VALUE_MEASURED |
| --- | --- |
| Cc1cc2c(Nc3c[nH]nc3C(=O)Nc3ccc(CN4CCN(C)CC4)cc3)nccc2s1 | 6.62 |
| CN1CCN(Cc2ccc(NC(=O)c3n[nH]cc3Nc3ncnc4occc34)cc2)CC1 | 6.59 |
| CN1CCN(Cc2ccc(NC(=O)c3n[nH]cc3Nc3ncnc4sccc34)cc2)CC1 | 6.63 |
| Cc1cc2c(Nc3c[nH]nc3C(=O)Nc3ccc(CN4CCN(C)CC4)cc3)ncnc2s1 | 6.68 |
| Cc1cc2c(Nc3c[nH]nc3C(=O)Nc3ccc(CN4CCN(C)CC4)cc3)ncnc2[nH]1 | 6.63 |

----------
test: Pharmacokinetics after single oral dose in rats; format: in vivo, Wistar rat; details: male, Wistar, rat, plasma, po, 30 mg/kg, mean of rats, oral 30 mg/kg, time 0.5 h; read-out: Plasma concentration, mean

| MOLECULE | concentration at 0.5 h (ng/mL) |
| --- | --- |
| O=C(Nc1ccc(CN2CCOCC2)cc1)c1n[nH]cc1Nc1ncnc2sccc12 [Compound I-2] | 50.8 |
| CN1CCN(Cc2ccc(NC(=O)c3n[nH]cc3Nc3ncnc4sccc34)cc2)CC1 [Compound I-1] | 72.7 |
